These measurements were taken from ChEMBL document CHEMBL5131453.

target: CYP2D6 (Homo sapiens, UniProt P10635); assay: Inhibition of CYP2D6 (unknown origin) assessed as residual activity at 20 uM by enzyme assay relative to control; format: ADME; conditions: read-out: Activity
Sequence (P10635 whole entry): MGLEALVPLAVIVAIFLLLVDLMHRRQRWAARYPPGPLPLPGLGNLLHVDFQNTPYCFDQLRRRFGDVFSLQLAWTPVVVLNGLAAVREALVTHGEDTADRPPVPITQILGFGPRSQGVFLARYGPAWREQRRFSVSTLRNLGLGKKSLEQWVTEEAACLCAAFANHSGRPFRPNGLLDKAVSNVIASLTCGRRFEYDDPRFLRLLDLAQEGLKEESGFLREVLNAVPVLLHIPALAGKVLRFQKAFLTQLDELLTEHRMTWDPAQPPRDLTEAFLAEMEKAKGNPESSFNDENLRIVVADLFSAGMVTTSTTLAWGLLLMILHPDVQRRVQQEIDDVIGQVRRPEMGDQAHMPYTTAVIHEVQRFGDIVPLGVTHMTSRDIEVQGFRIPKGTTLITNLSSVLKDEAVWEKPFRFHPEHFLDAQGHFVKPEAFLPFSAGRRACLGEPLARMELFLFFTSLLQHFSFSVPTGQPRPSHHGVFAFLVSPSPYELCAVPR
endpoint-label: activity at 20 µM (%)

[
  {
    "smiles-record": "Cc1ccc(CC(=O)O)cc1OCCC1CCN(c2nc3ccc(Cl)cc3s2)CC1",
    "endpoint-label": "activity at 20 µM",
    "unit-symbol": "%",
    "observed-value": 94
  }
]

* * *

target: CYP1A2 (Homo sapiens); experiment: Inhibition of CYP1A2 (unknown origin) assessed as residual activity at 20 uM by enzyme assay relative to control; format: ADME; conditions: read-out: Activity
Sequence (P05177 whole entry): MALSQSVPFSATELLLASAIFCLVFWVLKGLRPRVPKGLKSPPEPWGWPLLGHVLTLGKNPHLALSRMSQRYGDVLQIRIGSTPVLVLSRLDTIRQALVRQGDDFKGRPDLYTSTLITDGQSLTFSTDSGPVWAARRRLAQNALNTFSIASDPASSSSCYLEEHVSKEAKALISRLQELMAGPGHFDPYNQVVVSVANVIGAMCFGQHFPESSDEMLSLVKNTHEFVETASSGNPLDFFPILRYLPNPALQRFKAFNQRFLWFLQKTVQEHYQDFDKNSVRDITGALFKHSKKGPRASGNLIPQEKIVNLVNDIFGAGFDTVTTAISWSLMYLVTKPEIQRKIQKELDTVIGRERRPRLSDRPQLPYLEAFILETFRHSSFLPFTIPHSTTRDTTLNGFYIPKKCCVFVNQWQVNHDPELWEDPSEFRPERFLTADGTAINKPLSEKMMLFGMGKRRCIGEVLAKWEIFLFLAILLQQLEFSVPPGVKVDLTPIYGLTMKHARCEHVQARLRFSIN
endpoint-label: activity at 20 µM

[
  {
    "smiles-record": "Cc1ccc(CC(=O)O)cc1OCCC1CCN(c2nc3ccc(Cl)cc3s2)CC1",
    "endpoint-label": "activity at 20 µM",
    "observed-value": "92%"
  }
]

* * *

Item-by-item account of EC50
target: Peroxisome proliferator-activated receptor alpha (Homo sapiens); assay: Transactivation of Gal4-fused human PPARalpha expressed in CHO cells co expressing pG5-Luc reporter
Sequence (Q07869 whole entry, the tested form may be a part): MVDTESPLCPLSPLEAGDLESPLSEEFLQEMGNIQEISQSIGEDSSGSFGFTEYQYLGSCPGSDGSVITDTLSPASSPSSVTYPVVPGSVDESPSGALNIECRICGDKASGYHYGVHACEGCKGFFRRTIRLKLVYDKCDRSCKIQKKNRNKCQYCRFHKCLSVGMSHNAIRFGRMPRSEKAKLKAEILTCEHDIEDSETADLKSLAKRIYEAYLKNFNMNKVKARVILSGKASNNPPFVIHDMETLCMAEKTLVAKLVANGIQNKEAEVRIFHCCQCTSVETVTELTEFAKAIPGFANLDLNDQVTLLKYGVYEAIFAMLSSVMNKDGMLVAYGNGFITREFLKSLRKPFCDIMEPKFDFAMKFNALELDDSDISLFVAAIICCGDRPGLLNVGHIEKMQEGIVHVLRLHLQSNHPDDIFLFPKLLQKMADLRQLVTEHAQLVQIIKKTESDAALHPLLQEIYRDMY
endpoint-label: EC50 (nM)

[
  {
    "smiles-record": "Cc1ccc(CC(=O)O)cc1OCCC1CCN(c2nc3ccc(Cl)cc3s2)CC1",
    "endpoint-label": "EC50",
    "unit-symbol": "nM",
    "observed-value": 637
  },
  {
    "smiles-record": "Cc1cc(CC(=O)O)cc(OCCC2CCN(c3nc4ccc(Cl)cc4s3)CC2)c1",
    "endpoint-label": "EC50",
    "unit-symbol": "nM",
    "observed-value": 955
  },
  {
    "smiles-record": "CCc1ccc(CC(=O)O)cc1OCCC1CCN(c2nc3ccc(Cl)cc3s2)CC1",
    "endpoint-label": "EC50",
    "unit-symbol": "nM",
    "observed-value": 3600
  },
  {
    "smiles-record": "O=C(O)Cc1cccc(OCCC2CCN(c3nc4ccc(Cl)cc4s3)CC2)c1",
    "endpoint-label": "EC50",
    "unit-symbol": "nM",
    "observed-value": 2220
  }
]

* * *

test: Total clearance in rat dosed as mixture; type: ADME, organism-based; conditions: in vivo

[
  {
    "smiles-record": "Cc1ccc(CC(=O)O)cc1OCCC1CCN(c2nc3ccc(Cl)cc3s2)CC1",
    "unit-symbol": "mL/min/kg",
    "clearance": 14.3
  }
]

* * *

test: Half life in rat dosed as mixture; assay type: ADME, organism-based; settings: in vivo

[
  {
    "smiles-record": "Cc1ccc(CC(=O)O)cc1OCCC1CCN(c2nc3ccc(Cl)cc3s2)CC1",
    "half-life [h]": 1.8
  }
]

* * *

molecular target: CYP3A4 (Homo sapiens, UniProt P08684); test: Inhibition of CYP3A4 (unknown origin) assessed as residual activity at 20 uM by enzyme assay relative to control; format: ADME; conditions: read-out: Activity
Sequence (P08684 whole entry): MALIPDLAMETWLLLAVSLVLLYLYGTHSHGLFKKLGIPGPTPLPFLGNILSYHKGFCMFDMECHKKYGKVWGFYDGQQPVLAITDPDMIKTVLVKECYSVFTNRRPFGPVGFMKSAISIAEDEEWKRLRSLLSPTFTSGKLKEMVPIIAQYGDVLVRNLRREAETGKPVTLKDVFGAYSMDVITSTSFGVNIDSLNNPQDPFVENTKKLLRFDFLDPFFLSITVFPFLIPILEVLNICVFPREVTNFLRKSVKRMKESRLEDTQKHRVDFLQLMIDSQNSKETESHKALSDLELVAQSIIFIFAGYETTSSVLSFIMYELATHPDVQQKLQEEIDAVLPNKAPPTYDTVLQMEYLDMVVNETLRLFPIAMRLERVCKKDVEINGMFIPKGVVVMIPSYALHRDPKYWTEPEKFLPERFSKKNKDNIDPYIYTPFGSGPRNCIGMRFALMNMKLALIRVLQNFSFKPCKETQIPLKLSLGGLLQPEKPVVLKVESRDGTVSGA
endpoint-label: activity at 20 µM

[
  {
    "smiles-record": "Cc1ccc(CC(=O)O)cc1OCCC1CCN(c2nc3ccc(Cl)cc3s2)CC1",
    "study-system": "CYP3A4 (Homo sapiens, UniProt P08684)",
    "endpoint-label": "activity at 20 µM",
    "observed-value": "> 99%"
  }
]
